This collection of values is drawn from ChEMBL document CHEMBL1961873.

Target: Serine/threonine-protein kinase 10 (Homo sapiens);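 also: mean percent inhibition of LOK (STK10)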
Details: at 0.1 µM
Listed here are compounds together with their documented inhibition.
Supply the numeric figure in %, leaving out any unit text.

In [3]: df
Out[3]:
                         compound_structure  readout_label  measured
0  O=C1NC(=O)C(c2cccc(Cl)c2)=C1Nc1ccc(Cl)c(C(=O)O)c1     inhibition      4.75
1  c1ccc(-c2n[nH]cc2-c2ccnc(-c3ccc(OCCN4CCOCC4)cc3)c2)nc1     inhibition      3.53
2   O=C1Nc2ccc(I)cc2C1=Cc1cc(Br)c(O)c(Br)c1     inhibition      4.81

IN: Determine from records and report inhibition for `Fc1ccc(-c2ncn(C3CCNCC3)c2-c2ccnc(Oc3ccc4c(c3)OCO4)n2)cc1`
OUT: 8.13

IN: Determine from records and report inhibition for `O=C(Nc1n[nH]c2nc(-c3ccco3)ccc12)C1CC1`
OUT: 4.1

IN: Determine from records and report inhibition for `FC(F)(F)c1cccc(Nc2nccc(-c3cnn4nc(-c5ccccc5)ccc34)n2)c1`
OUT: 3.86
